- Measurement Target: CB2 receptor (Homo sapiens)
- Protocol: cell-based
- Parameters: host or cells: cAMP Hunter cell lines
- Details: PathHunter agonist mode; read-out: CB2 Activity (β-Arrestin)
Assign EC50 to each entry below.

Lookup: Enter reported EC50 observed with CB2 receptor (Homo sapiens) for "CC(C)(CCCCCC(=O)O)c1cc(O)c2c(c1)OC(C)(C)[C@@H]1CC=C(C(=O)O)C[C@@H]21"
Found: > 1 µM

Lookup: Hello, I am looking for reported EC50 with CB2 receptor (Homo sapiens) for "CCCCCCC(C)(C)C1=CC2=C(C(=O)C1=O)[C@@H]1CC(C(=O)O)=CC[C@H]1C(C)(C)O2" . Could you help?
Found: > 3 µM

Lookup: Tell me reported EC50 for "CCCCCCC(C)(C)c1cc(O)c2c(c1)OC(C)(C)[C@@H]1CC=C(C(=O)NC(C)(C)CC(=O)O)C[C@@H]21" , tested with CB2 receptor (Homo sapiens).
Found: > 3 µM

---

- Measurement Target: UniProt P21554
- Sequence (P21554 whole entry): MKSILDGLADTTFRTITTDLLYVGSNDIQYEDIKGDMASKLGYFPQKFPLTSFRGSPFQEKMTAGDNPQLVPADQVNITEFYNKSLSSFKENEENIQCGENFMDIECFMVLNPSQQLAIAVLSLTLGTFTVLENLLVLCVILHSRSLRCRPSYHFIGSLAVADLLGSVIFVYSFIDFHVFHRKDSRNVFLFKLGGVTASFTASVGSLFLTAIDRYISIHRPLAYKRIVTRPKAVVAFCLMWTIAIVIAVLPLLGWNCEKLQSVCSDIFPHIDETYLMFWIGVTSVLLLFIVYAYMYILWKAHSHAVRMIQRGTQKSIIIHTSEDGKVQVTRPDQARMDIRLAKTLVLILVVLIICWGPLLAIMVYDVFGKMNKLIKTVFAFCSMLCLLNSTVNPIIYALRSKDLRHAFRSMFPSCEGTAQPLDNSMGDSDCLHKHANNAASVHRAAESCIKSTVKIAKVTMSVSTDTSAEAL
- Protocol: cell-based
- Set-up: host or cells: PathHunter cell lines
- Details: PathHunter agonist mode; read-out: CB1 Activity (β-Arrestin)
Measured Metric: EC50

Lookup: # EC50 lookup, item "CCCCCCC(C)(C)c1cc(O)c2c(c1)OC(C)(C)[C@@H]1CC=C(C(=O)NC(C)(C)CCO)C[C@@H]21"
Found: > 3000 nM

Lookup: Would you mind telling me what EC50 value was observed for "CCCCCCC(C)(C)c1cc(O)c2c(c1)OC(C)(C)[C@@H]1CC=C(C(=O)NC(C)(C)CC(=O)O)C[C@@H]21" ?
Found: > 3000 nM

Lookup: EC50 for "CCCCCCC(C)(C)c1cc(O)c2c(c1)OC(C)(C)[C@@H]1CC=C(C(=O)NCCCO)C[C@@H]21" ?
Found: 787 nM

Lookup: Given the entry "CCCCCCC(C)(C)C1=CC2=C(C(=O)C1=O)[C@@H]1CC(C(=O)O)=CC[C@H]1C(C)(C)O2" , report its measured EC50.
Found: > 3000 nM

Lookup: Which measured EC50 value corresponds to "CCCCCCC(C)(C)c1cc(O)c2c(c1)OC(C)(C)[C@@H]1CC=C(C(=O)NC3CC3)C[C@@H]21" ?
Found: 160 nM

Lookup: What EC50 value was documented for this compound, "CC(C)(CCCCCC(=O)O)c1cc(O)c2c(c1)OC(C)(C)[C@@H]1CC=C(C(=O)O)C[C@@H]21" ?
Found: > 10000 nM

---

- Measurement Target: CB2 receptor (Homo sapiens)
- Protocol: CB2 competitive radioligand binding assay ([3H] WIN-55,212-2)
- Parameters: expressed in transfected cells; host or cells: CHO-K1 cells
- Details: Table 3, ratio of Ki CB1/CB2
Where Fold Selectivity (CB1/CB2) equals or exceeds 7, the correct label is yes; where it does not, the label is no.

Lookup: Please tell me: is the molecule CCCCCCC(C)(C)c1cc(O)c2c(c1)OC(C)(C)[C@@H]1CC=C(C(=O)NS(C)(=O)=O)C[C@@H]21 [Compound 108] at or over 7 in terms of Fold Selectivity (CB1/CB2)?
Found: yes

Lookup: Item CCCCCCC(C)(C)c1cc(O)c2c(c1)OC(C)(C)[C@@H]1CC=C(C(=O)NC3CCCC3)C[C@@H]21 [Compound 92] with Fold Selectivity (CB1/CB2) of 7 or above?
Found: yes

Lookup: Please check the record CCCCCCC(C)(C)c1cc(O)c2c(c1)OC(C)(C)[C@@H]1CC=C(C(=O)NO)C[C@@H]21 [Compound 105] and state if its Fold Selectivity (CB1/CB2) is at or above 7.
Found: no

Lookup: Can CCCCCCC(C)(C)c1cc(O)c2c(c1)OC(C)(C)[C@@H]1CC=C(C#N)C[C@@H]21 [Compound 112] be said to have Fold Selectivity (CB1/CB2) at or above 7?
Found: no

Lookup: Is the recorded value of Fold Selectivity (CB1/CB2) equal to or greater than 7 for this molecule? CCCCCCC(C)(C)c1cc(O)c2c(c1)OC(C)(C)[C@@H]1CC=C(C(=O)NOCCO)C[C@@H]21 [Compound 41]
Found: no

Lookup: Could you tell me if the measured Fold Selectivity (CB1/CB2) of CCCCCCC(C)(C)c1cc(O)c2c(c1)OC(C)(C)[C@@H]1CC=C(C(=O)NC(C)(C)C(F)(F)F)C[C@@H]21 [Compound 100] reaches 7 or more?
Found: yes

Lookup: API: above_or_equal(metric=Fold Selectivity (CB1/CB2), cutoff=7) for item CCCCCCC(C)(C)c1cc(O)c2c(c1)OC(C)(C)[C@@H]1CC=C(C(=O)NC34CC5CC(CC(C5)C3)C4)C[C@@H]21 [Compound 42]
Found: no

Lookup: Determine whether this molecule has Fold Selectivity (CB1/CB2) no lower than 7: CCCCCCC(C)(C)c1cc(O)c2c(c1)OC(C)(C)[C@@H]1CC=C(C(=O)NC3CNC3)C[C@@H]21 [Compound 103]
Found: no

Lookup: Quick check, Fold Selectivity (CB1/CB2) >= 7? CC(C)(CCCCCCO)c1cc(O)c2c(c1)OC(C)(C)[C@@H]1CC=C(C(=O)O)C[C@@H]21 [Compound 57]
Found: no

Lookup: Identify whether the reported Fold Selectivity (CB1/CB2) of the following molecule is 7 or greater: CCCCCCC(C)(C)c1cc(O)c2c(c1)OC(C)(C)[C@@H]1CC=C(C(=O)NC#N)C[C@@H]21 [Compound 106]
Found: no

Lookup: Exam item: decide whether the reported Fold Selectivity (CB1/CB2) for CCCCCCC(C)(C)c1cc(O)c2c(c1)OC(C)(C)[C@@H]1CC=C(C(=O)NOC)C[C@@H]21 [Compound 107] is at least 7.
Found: yes

Lookup: In plain terms: is recorded Fold Selectivity (CB1/CB2) at least 7 for CCCC(C)(C)c1cc(O)c2c(c1)OC(C)(C)[C@@H]1CC=C(C(=O)NC3(C(F)(F)F)CC3)C[C@@H]21 [Compound 102] ?
Found: yes

Lookup: Has CCCCCCC(C)(C)c1cc(O)c2c(c1)OC(C)(C)[C@@H]1CC=C(C(=O)NC34CC5CC(CC(O)(C5)C3)C4)C[C@@H]21 [Compound 43] a recorded Fold Selectivity (CB1/CB2) greater than or equal to 7?
Found: yes

Lookup: Check if Fold Selectivity (CB1/CB2) >= 7 (inclusive). Item: CCCCCCC(C)(C)c1cc(O)c2c(c1)OC(C)(C)[C@@H]1CC=C(C(=O)NN3CCCCC3)C[C@@H]21 [Compound 48]
Found: yes

Lookup: Is Fold Selectivity (CB1/CB2) at least 7? Consider CCCCCCC(C)(C)c1cc(O)c2c(c1)OC(C)(C)[C@@H]1CC=C(C(=O)NC(C)C)C[C@@H]21 [Compound 91]
Found: yes

---

Assign pKi to each entry below.
- Measurement Target: CB2 receptor (Homo sapiens, UniProt P34972)
- Sequence (P34972 whole entry): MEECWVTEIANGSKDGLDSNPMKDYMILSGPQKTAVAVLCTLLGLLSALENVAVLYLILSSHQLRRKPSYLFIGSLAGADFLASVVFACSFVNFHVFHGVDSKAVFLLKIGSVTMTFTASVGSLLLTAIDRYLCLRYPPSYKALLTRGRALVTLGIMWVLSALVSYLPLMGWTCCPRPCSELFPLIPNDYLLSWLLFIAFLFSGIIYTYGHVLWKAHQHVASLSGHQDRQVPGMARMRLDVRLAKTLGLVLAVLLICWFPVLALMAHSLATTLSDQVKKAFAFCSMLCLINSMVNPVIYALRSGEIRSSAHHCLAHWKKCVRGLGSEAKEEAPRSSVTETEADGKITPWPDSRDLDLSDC
- Protocol: CB2 competitive radioligand binding assay ([3H] WIN-55,212-2)
- Parameters: expressed in transfected cells; host or cells: CHO-K1 cells
pKi: −log10 of the molar value.

Lookup: Given "CCCCCCC(C)(C)c1cc(OC)c2c(c1)OC(C)(C)[C@@H]1CC=C(C(=O)O)C[C@@H]21" , state its recorded pKi.
Found: < 5.52

Lookup: Could you share which pKi value was measured for "CCCCC(C)(C)c1cc(O)c2c(c1)OC(C)(C)[C@@H]1CC=C(C(=O)O)C[C@@H]21" ?
Found: < 5.52

Lookup: Record request: pKi value, item "CCCC(C)(C)c1cc(O)c2c(c1)OC(C)(C)[C@@H]1CC=C(C(=O)O)C[C@@H]21"
Found: < 5.52
